# System: OVCAR-8 ovarian
# experiment.summary: NCI-60 one-dose screen, 48 h (100 = growth as untreated, 0 = no growth, -100 = all killed)
# condition.context: 10 µM unless noted
This is part of a sample that, as a whole, favours compounds with a hit. Of some 83,000 tested, about 20% had one in any assay.
quantity.measured: growth (%)
Supply the numeric figure in %, leaving out any unit text.

Value of growth reported for the compound O=C(N/N=C/c1ccc(O)c(O)c1)c1sc2ccccc2c1Cl is 90.4

O=C(Nc1nc(-c2ccccc2Cl)cs1)c1cc(-c2ccccc2)nc2ccc(Cl)cc12 yielded growth of 19.2

* * *

# System: SNB-19 CNS
# experiment.summary: NCI-60 one-dose screen, 48 h (100 = growth as untreated, 0 = no growth, -100 = all killed)
# condition.context: 10 µM unless noted
Compounds without any hit were thinned out: in the full panel of roughly 83,000, 20% have a hit.
Rule: Criterion met for growth not less than 80%, Criterion not met for anything less.

> print(dat)
                                   compound     classification
1            CSc1nnc2c(=O)n(C)c(=O)n(C)c2n1      Criterion met
2  COc1ccc(/C=C2\COc3ccc(-c4ccccc4)cc3C2=O)cc1O  Criterion not met
3  O=C(CCN1CCCC1)Nc1ccc2c(NCc3ccc(F)cc3)c3ccccc3nc2c1  Criterion not met

Task: Assess whether reported growth for Cn1c(COC(=O)NCCn2ccnc2)nc2c(N3CCOCC3)nc(-c3ccccc3)nc21 sits at 80% or higher.
Output: Criterion not met

Task: Answer whether growth of CC(=O)CCSc1ccc(OC(C)=O)cc1 is greater than or equal to 80%.
Output: Criterion met

Task: Decide: is the reported value of growth for N#Cc1c(Nc2ccccc2)nn2cc(-c3nc4ccccc4s3)c(N)nc12 equal to or greater than 80%?
Output: Criterion not met

* * *

# Tested on: MCF7 breast
# experiment.summary: NCI-60 one-dose screen, 48 h (100 = growth as untreated, 0 = no growth, -100 = all killed)
# condition.context: 10 µM unless noted
# Description: Growth inhibition of the MCF7 human tumor cell line is measured as a screen for anti-cancer activity. Cells are grown in 96 well plates and exposed to the test compound for 48 hours. Compounds are tested at a single concentration, which is 10^-5 M for most compounds. The reported endpoint is percent growth (GI% or GIPRCNT), where numbers from 0 - 100% represent growth inhibition, and numbers from -100% - 0 represent cell death. For example, a value of 40 represents 60% growth inhibition. […]
This is part of a sample that, as a whole, favours compounds with a hit. Of some 83,000 tested, about 20% had one in any assay.
quantity.measured: growth (%)
Could you give me the number in %? Just the number is fine.

Record excerpt, results attached:
compound	endpoint.result
O=C1CCC(NC(=S)Nc2ccccc2)N1 (stereo not given)	97.3
O=c1[nH]c(=O)[nH]c(=S)[nH]1	97.8
O=C(Nc1cccc(C2=NCCN2)c1)c1ccc(OCCCOc2ccc(C(=O)Nc3cccc(C4=NCCN4)c3)cc2)cc1	0.803
Cc1ccc2nc3c(cc2c1)CSc1nnc(-c2ccc[nH]c2=S)n1N3	94.4

Form field growth for item CN1CCCC1=Nc1ccccc1 on MCF7 breast: 97.2

// assay MCF7 breast, entry Cc1c2c(cc[n+]1Cc1ccccc1)c1ccc(OCc3ccccc3)cc1n2Cc1ccccc1 , growth value = -23.1

Simply: COc1ccc(C(=O)c2cc3c(N)c(C(=O)Nc4cccc(OC)c4)sc3nc2C)cc1 , MCF7 breast, growth = 23.4

Values compiled from PubChem BioAssay (NCI).
